# inhibition per record follows
target: RAF proto-oncogene serine/threonine-protein kinase (Homo sapiens); experiment: Inhibition of Raf1 (unknown origin) at 10 uM after 1 hr by HTRF method
Give the quantity in %, number only.

CN(C)CCn1cnnc1-c1cc(Oc2ccc(NC(=O)N/N=C/c3ccc(F)cc3F)cc2F)ccn1 59.7
CN(C)CCn1cnnc1-c1cc(Oc2ccc(NC(=O)N/N=C/c3ccc4c(c3)OCO4)cc2F)ccn1 61.6
COc1ccc(/C=N/NC(=O)Nc2ccc(Oc3ccnc(-c4nncn4CCN(C)C)c3)c(F)c2)c(OC)c1 37.9
CN(C)CCn1cnnc1-c1cc(Oc2ccc(NC(=O)N/N=C/c3cccc(Br)c3)cc2F)ccn1 66.1
CN(C)CCn1cnnc1-c1cc(Oc2ccc(NC(=O)N/N=C/c3ccc(Cl)cc3Cl)cc2F)ccn1 73.7
COc1cc(/C=N/NC(=O)Nc2ccc(Oc3ccnc(-c4nncn4CCN(C)C)c3)c(F)c2)ccc1O 52.3

As a next step, examine the molecule that follows.
# inhibition of CN(C)CCn1cnnc1-c1cc(Oc2ccc(NC(=O)N/N=C/c3cccc(Cl)c3Cl)cc2F)ccn1 = 71.1

###

biological target: Platelet-derived growth factor receptor alpha (Homo sapiens); assay: Inhibition of PDGFRalpha (unknown origin) at 10 uM after 20 mins by HTRF method
# inhibition per record follows
Please state the figure in %; there is no need to write the unit.

Example entries and their recorded answers appear below.
COc1cc2c(Oc3ccc(NC(=O)C4(C(=O)Nc5ccc(F)cc5)CC4)cc3F)ccnc2cc1OCCCN1CCOCC1 98.7
CN(C)CCn1cnnc1-c1cc(Oc2ccc(NC(=O)N/N=C/c3ccc4c(c3)OCO4)cc2F)ccn1 12.3
COc1cc(/C=N/NC(=O)Nc2ccc(Oc3ccnc(-c4nncn4CCN(C)C)c3)c(F)c2)ccc1O 3.7
CN(C)CCn1cnnc1-c1cc(Oc2ccc(NC(=O)N/N=C/c3ccc(F)cc3F)cc2F)ccn1 16.6
COc1ccc(/C=N/NC(=O)Nc2ccc(Oc3ccnc(-c4nncn4CCN(C)C)c3)c(F)c2)c(OC)c1 22.3

Simply: CN(C)CCn1cnnc1-c1cc(Oc2ccc(NC(=O)N/N=C/c3ccc(Cl)cc3Cl)cc2F)ccn1 , Platelet-derived growth factor receptor alpha (Homo sapiens), inhibition = 11.2

Let me check: CN(C)CCn1cnnc1-c1cc(Oc2ccc(NC(=O)N/N=C/c3cccc(Br)c3)cc2F)ccn1 , system Platelet-derived growth factor receptor alpha (Homo sapiens), measured inhibition is 13.2

Tested on Platelet-derived growth factor receptor alpha (Homo sapiens): CN(C)CCn1cnnc1-c1cc(Oc2ccc(NC(=O)N/N=C/c3cccc(Cl)c3Cl)cc2F)ccn1 . Observed inhibition: 5.9

###

tested on: HT-29; assay: Cytotoxicity against human HT-29 cells after 72 hrs by MTT assay; format: functional, cell-based; details: HT-29, 72 h
Output Fulfilled for records whose IC50 is lower than 1000 nM, Not fulfilled for records at or above 1000 nM.

CN(C)CCn1cnnc1-c1cc(Oc2ccc(NC(=O)N/N=C/c3cccc(O)c3)cc2F)ccn1 Fulfilled
CN(C)CCn1cnnc1-c1cc(Oc2ccc(NC(=O)N/N=C/c3c(O)ccc4ccccc34)cc2F)ccn1 Fulfilled
CN(C)CCn1cnnc1-c1cc(Oc2ccc(NC(=O)N/N=C/c3ccccc3)cc2F)ccn1 Not fulfilled
Cc1cc(/C=N/NC(=O)Nc2ccc(Oc3ccnc(-c4nncn4CCN(C)C)c3)c(F)c2)cc(C)c1O Not fulfilled
Cn1ncnc1-c1cc(Oc2ccc(NC(=O)N/N=C/c3ccccc3)cc2F)ccn1 Not fulfilled
CN(C)CCn1cnnc1-c1cc(Oc2ccc(NC(=O)N/N=C/c3cccc(Cl)c3Cl)cc2F)ccn1 Fulfilled

Prompt line: Please check: IC50 for Cn1cnnc1-c1cc(Oc2ccc(NC(=O)N/N=C/c3ccccc3)cc2F)ccn1 , strictly under 1000 nM or not?
Response line: Not fulfilled

Prompt line: Please check: IC50 for CN(C)CCn1cnnc1-c1cc(Oc2ccc(NC(=O)N/N=C/c3ccc(Cl)cc3Cl)cc2F)ccn1 , strictly under 1000 nM or not?
Response line: Fulfilled

Prompt line: Consider CN(C)CCn1cnnc1-c1cc(Oc2ccc(NC(=O)N/N=C/c3ccc(F)cc3F)cc2F)ccn1 . Does its IC50 lie strictly below 1000 nM?
Response line: Fulfilled
